target: CDK7/Cyclin H/MNAT1 (Homo sapiens, UniProt P51946+P50613+P51948); assay: Inhibition of human His-tagged CDK7/cyclin H/MNAT1 expressed in baculovirus infected insect cells at 250 nM preincubated for 10 mins followed by substrate and ATP addition and measured after 60 mins by ADP-Glo kinase assay relative to control; conditions: Insect cell, time 70.0 min
Readout Label: inhibition (%)
Number in %, nothing else.

QUERY: Look up inhibition for this compound: `CP(C)(=O)c1cccc2c(-c3nc(N[C@H]4CCNC4)nc4ccsc34)c[nH]c12`
RESULT: 70

QUERY: Look up inhibition for this compound: `CP(C)(=O)c1cccc2c(-c3nc(NC[C@H]4CCCN4)nc4ccsc34)c[nH]c12`
RESULT: 69

QUERY: Look up inhibition for this compound: `CP(C)(=O)c1cccc2c(-c3nc(N[C@@H]4CNC[C@H]4O)nc4ccsc34)c[nH]c12`
RESULT: 71

QUERY: Look up inhibition for this compound: `CP(C)(=O)c1c(C#N)ccc2c(-c3nc(N[C@H]4CC[C@H](N)C4)nc4ccsc34)c[nH]c12`
RESULT: 92

QUERY: Look up inhibition for this compound: CP(C)(=O)c1cccc2c(-c3nc(NC4C5CNCC54)nc4ccsc34)c[nH]c12 (configuration not stated)
RESULT: 72

QUERY: Look up inhibition for this compound: `CP(C)(=O)c1cccc2c(-c3nc(NCC4(F)CNC4)nc4ccsc34)c[nH]c12`
RESULT: 40

QUERY: Look up inhibition for this compound: `CP(C)(=O)c1cccc2c(-c3nc(N[C@H]4CC[C@H](N)CC4)nc4ccsc34)c[nH]c12`
RESULT: 80

QUERY: Look up inhibition for this compound: `C[C@@H]1C[C@H](Nc2nc(-c3c[nH]c4c(P(C)(C)=O)cccc34)c3sccc3n2)CN1`
RESULT: 65

QUERY: Look up inhibition for this compound: CP(C)(=O)c1cccc2c(-c3nc(N[C@]45CNCC4C5)nc4ccsc34)c[nH]c12 (some centres not stated)
RESULT: 87

QUERY: Look up inhibition for this compound: CP(C)(=O)c1cccc2c(-c3nc(NCC4CCNC4)nc4ccsc34)c[nH]c12 (configuration not stated)
RESULT: 91

QUERY: Look up inhibition for this compound: CP(C)(=O)c1cccc2c(-c3nc(NC4CC5(CCNC5)C4)nc4ccsc34)c[nH]c12 (configuration not stated)
RESULT: 67

QUERY: Look up inhibition for this compound: `CP(C)(=O)c1cccc2c(-c3nc(N[C@H]4CC[C@@H](N)C4)nc4ccsc34)c[nH]c12`
RESULT: 26

Cited source: ChEMBL document CHEMBL5532658
